Parameter: half-life at 1 μM. Scope: all listed entries.
test-name: Stability in human liver microsomes
Assay type: in vitro ADME
condition-parameters: human, liver microsomes, pH 7.4, Human; 0.5 mg/mL microsomal protein, 1.00 μM compound, NADPH; read-out: Half life T1/2, human liver microsomes
recorded-endpoint: half-life at 1 μM (min)

>>> measured("CCN(C(=O)c1cc(F)ccc1Oc1nncnc1N1CC2(CCN(C[C@H]3CC[C@]4(CC3)CC(COC)(COC)C(=O)N4)CC2)C1)C(C)C")
80.9
>>> measured("CCN(C(=O)c1cc(F)ccc1Oc1nncnc1N1CC2(CCN(C[C@H]3CC[C@]4(CC3)CC3(CCOCC3)C(=O)N4)CC2)C1)C(C)C")
37.1
>>> measured("CC(C)N(C(=O)c1cc(F)ccc1Oc1nncnc1N1CC2(CCN(CC3CC4CCC3CC43CCC(=O)N3)CC2)C1)C(C)C (single isomer, unassigned)")
36.9
>>> measured("CC(C)N(C(=O)c1cc(F)ccc1Oc1nncnc1N1CC2(CCN(C[C@H]3CC[C@]4(CC3)CC(C(C)(C)O)C(=O)N4)CC2)C1)C(C)C (single isomer, unassigned)")
28.7
>>> measured("COC[C@@H]1C[C@]2(CC[C@@H](CN3CCC4(CC3)CN(c3ncnnc3Oc3ccc(F)cc3C(=O)N(C(C)C)C(C)C)C4)CC2)NC1=O")
62.7
>>> measured("CCN(C(=O)c1cc(F)ccc1Oc1nncnc1N1CC2(CCN(CC3CC4CCC3CC43CCC(=O)N3)CC2)C1)C(C)C (single isomer, unassigned)")
57.3
>>> measured("CCN(C(=O)c1cc(F)ccc1Oc1nncnc1N1CC2(CCN(C[C@H]3CC[C@]4(CC3)CC(C)(C)C(=O)N4)CC2)C1)C(C)C")
37.1
>>> measured("CC(C)N(C(=O)c1cc(F)ccc1Oc1nncnc1N1CC2(CCN(C[C@H]3CC[C@@]4(CCC(=O)N4)CC3)CC2)C1)C(C)C")
47.1
>>> measured("CCN(C(=O)c1cc(F)ccc1Oc1cncnc1N1CC2(CCN(C[C@H]3CC[C@]4(CC3)CC(COC)(COC)C(=O)N4)CC2)C1)C(C)C")
31.3
>>> measured("CC(C)N(C(=O)c1cc(F)ccc1Oc1nncnc1N1CC2(CCN(CC3CCC4(CC3)CN(C)C(=O)N4)CC2)C1)C(C)C (single isomer, unassigned)")
46.8
>>> measured("COC[C@H]1C[C@]2(CC[C@@H](CN3CCC4(CC3)CN(c3ncnnc3Oc3ccc(F)cc3C(=O)N(C(C)C)C(C)C)C4)CC2)NC1=O")
88

----------
System: MOLM-13
test-name: Cell proliferation inhibition (CellTiter-Glo), MOLM-13
Type: cell-based
condition-parameters: Homo sapiens, MOLM-13, 168 h, MOLM-13 cells
recorded-endpoint: GI50 (nM)

>>> measured("CCN(C(=O)c1cc(F)ccc1Oc1cncnc1N1CC2(CCN(CC3CC4CCC3CC43CCC(=O)N3)CC2)C1)C(C)C (single isomer, unassigned) [Example 3-1]")
47.4
>>> measured("CCN(C(=O)c1cc(F)ccc1Oc1nncnc1N1CC2(CCN(C[C@H]3CC[C@]4(CC3)CC(C(C)(C)O)C(=O)N4)CC2)C1)C(C)C (stereo partly drawn) [Example 58-1]")
88.9
>>> measured("CCN(C(=O)c1cc(F)ccc1Oc1nncnc1N1CC2(CCN(CC3CCC4(CC3)CN(C)C(=O)N4)CC2)C1)C(C)C (single isomer, unassigned) [Example 46-1]")
329
>>> measured("CCN(C(=O)c1cc(F)ccc1Oc1cncnc1N1CC2(CCN(C[C@H]3CC[C@@]4(CCC(=O)N4)CC3)CC2)C1)C(C)C [Example 1]")
580
>>> measured("CC(C)N(C(=O)c1cc(F)ccc1Oc1cncnc1N1CC2(CCN(C[C@H]3CC[C@@]4(CCC(=O)N4)CC3)CC2)C1)C(C)C [Example 5]")
46.5
>>> measured("CC1C[C@]2(CC[C@@H](CN3CCC4(CC3)CN(c3ncnnc3Oc3ccc(F)cc3C(=O)N(C(C)C)C(C)C)C4)CC2)NC1=O (stereo partly drawn) [Example 41-1]")
52.7
